Structures can show the parent of a compound that is named as a salt.
I'd appreciate it if you could supply melting point values for the items below.

Query string: Which value of melting point has been reported for CC(C)Oc1ccc(N2CCC(Oc3cccnc3N3CCN(C)CC3)C2=O)cc1 (stereo not shown) (as salt: salt) in the records?
Result string: 93 to 120 °C

Query string: Please report the recorded melting point for CN1CCN(c2ncccc2OC2CCN(c3ccc(C4CCOCC4)cc3)C2=O)CC1 (stereo not shown) (as salt: salt) .
Result string: 219 to 248 °C

Query string: Consider the compound shown here: CN1CCN(c2ccccc2OC2CCCN(c3ccc(N4CCOC4=O)cc3)C2=O)CC1 (stereo not shown) What is its recorded melting point?
Result string: 71 to 88 °C

Query string: Look at this compound and give its reported melting point. CN1CCN(c2ccccc2OC2CCN(c3ccc(N4CCCC4=O)cc3)C2=O)CC1 (stereo not shown)
Result string: 164 to 180 °C
